target-or-system: T1, 006 PSMA Fab (biotinylated (site not stated))
T1 construct: also called Anti-PSMA Fab
test-name: clonal phage ELISA on biotinylated PSMA Fab captured on neutravidin, anti-M13-HRP detection;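 also: crude clonal phage supernatants added to wells preincubated with PSMA antigen in blocking buffer or with blocking buffer alone, brief binding period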
Where no end group is shown, it is not given here.
measured-attribute: Phage binding ELISA signal, Anti-PSMA Fab
Numbers only.

Item under review: IDPMCKPLWMCAGF (cysteine pairing not given here; also: peptide displayed as fusion to phage pIII, Peptide-180 library clone, tested as clonal phage (peptide fused to pIII)) [Phage-2936] . Reported Phage binding ELISA signal, Anti-PSMA Fab?
2.29

Name the recorded Phage binding ELISA signal, Anti-PSMA Fab for DVRMCKPSWMCIGL (Peptide-180 library clone, tested as clonal phage (peptide fused to pIII)) [Phage-2941] .
2.28

Name the reported Phage binding ELISA signal, Anti-PSMA Fab value associated with the binder HVPKCVPQWMCIGF (Peptide-180 library clone, tested as clonal phage (peptide fused to pIII)) [Phage-2938]
2.29

# batch: return Phage binding ELISA signal, Anti-PSMA Fab for each of the 5 binders below
1. ISALCVPDWMCYGF (Peptide-180 library clone, tested as clonal phage (peptide fused to pIII)) [Phage-2939]
2. VFPMCKPAWMCLGF (Peptide-180 library clone, tested as clonal phage (peptide fused to pIII)) [Phage-2937]
3. EMRMCTPPWMCWGF (Peptide-180 library clone, tested as clonal phage (peptide fused to pIII)) [Phage-2946]
4. EGIYCRPAWMCEGF (Peptide-180 library clone, tested as clonal phage (peptide fused to pIII)) [Phage-2943]
5. FDKICVPTWMCTGF (Peptide-180 library clone, tested as clonal phage (peptide fused to pIII)) [Phage-2940]

2.28
2.29
2.28
2.28
2.28
